Data provenance: ChEMBL document CHEMBL1201862

Measured GI50, listed per entry.
# Tested on: SR
# assay name: NCI tumour cell line growth inhibition, 48 h
Active and inactive are the calls of the source. Cut-off read from the data, not from the text of the source: active = GI50 up to about 1.1 µM and inactive = higher.

Answered examples (2):
>>> observed_result("CN(C)CCn1c2c(c3ccccc31)CCc1ccccc1-2")
"10.8 µM (inactive)"
>>> observed_result("CC1=Cc2cccc(C)c2C(=O)C1=O")
"0.26 µM (active)"

Notebook: Cc1ccc(NC(=O)CC(=O)N2N=C(c3ccccc3)C(/N=N/c3ccc(S(=O)(=O)CCOS(=O)(=O)O)cc3)C2=O)cc1 (stereo not given) , GI50 read as > 100 µM (inactive)

Notebook: `O=C1C=C(NCCc2ccccc2)c2ccccc2C1=O` , GI50 read as 5.94 µM (inactive)

Notebook: `c1ccc(/N=C2\S/C(=N\C3CCCCC3)N(C3CCCCC3)\C2=N/c2ccccc2)cc1` , GI50 read as > 100 µM (inactive)

* * *

# System: A498
# assay name: NCI tumour cell line growth inhibition, 48 h
Active and inactive are the calls of the source. Rule as the data show it: active = GI50 up to about 1.1 µM and inactive = higher.
Measured GI50, listed per entry.

>>> observed_result("COc1ccc(C(O)c2ccc3c(c2)OCO3)cc1 (stereo not drawn)")
"> 100 µM (inactive)"
>>> observed_result("O=C(O)c1ccccc1/N=N\\c1c(O)c(S(=O)(=O)O)cc2cc(S(=O)(=O)O)ccc12")
"> 100 µM (inactive)"

Response field GI50 (A498) for item C[C@H](CCC(=O)O[C@@H]1CC[C@@]2(C)C(CC[C@H]3[C@@H]4CC[C@H]([C@H](C)CCc5nc6ccccc6[nH]5)[C@@]4(C)CC[C@@H]32)C1)[C@H]1CC[C@H]2[C@@H]3CCC4C[C@H](O)CC[C@]4(C)[C@H]3CC[C@]12C (stereo partly drawn) : > 87.5 µM (inactive)

* * *

# Tested on: U-251
# assay name: NCI tumour cell line growth inhibition, 48 h
The source made the active and inactive calls. Rule as the data show it: active = GI50 up to about 1.1 µM and inactive = higher.
// allowed return values: active, inactive

Worked set:
>>> class_assignment("CC(=O)O[C@H]1C(=O)[C@@]2(C)[C@H]([C@H](OC(=O)c3ccccc3)[C@]3(O)C[C@H](OC(=O)[C@H](O)[C@@H](NC(=O)c4ccccc4)c4ccccc4)C(C)=C1C3(C)C)[C@]1(OC(C)=O)CO[C@@H]1C[C@@H]2O")
"active"
>>> class_assignment("CCOC(=O)Cc1cc(=O)[nH]c(-n2[nH]c(C)c(CCO)c2=O)n1")
"inactive"

Then this compound:
[Q] What did the test return for `COc1cc(/C=C2\[C@H]3c4c(c(OC)c(C)c(OC)c4OC)C[C@@H](C(=O)N2Cc2ccccc2)N3C(=O)OCC(C)C)c(OC)c(C)c1OC` ?
[A] inactive

* * *

# Tested on: UACC-257
# assay name: NCI tumour cell line growth inhibition, 48 h
Calls of active or inactive are those of the source. Rule as the data show it: active = GI50 up to about 1.1 µM and inactive = higher.
attribute measured: GI50

Answered examples (3):
>>> observed_result("COc1cccc2c1C(=O)c1c(O)c3c(c(O)c1C2=O)C[C@@](O)(C(C)O)C[C@@H]3OC1CC(N)C(O)C(C)O1 (stereo not given in full)")
"1.42 µM (inactive)"
>>> observed_result("COc1ccc(/C=C2\\C(=O)N(C(=O)c3ccc(NC(C)=O)cc3)N=C2C)cc1OC")
"> 100 µM (inactive)"
>>> observed_result("Cc1cc2c(cc1N)C(C)C1(CCC(=O)N2Cc2ccccc2)OCCO1 (stereo not given)")
"> 100 µM (inactive)"

Notebook: `CC(=O)Nc1ccc(NCC(=O)Nn2cnc3ccc(S(=O)(=O)Nc4ccc(NC(C)=O)cc4)cc3c2=O)cc1` , GI50 read as > 100 µM (inactive)

Notebook: `COc1ccc2c(c1)C1(C=N2)CCN(C(C)=O)CC1` , GI50 read as > 100 µM (inactive)

* * *

# Test system: MCF7
# assay name: NCI tumour cell line growth inhibition, 48 h
The source made the active and inactive calls. No stated cut-off is given here; in the data, active = GI50 up to about 1.1 µM and inactive = higher. Where a SMILES comes first, the peptide text is derived from it. [ ]: non-standard residue; d: D form. The star is where a group is joined. ξ: configuration not given here. ξD = NC(CC(=O)O)C(=O)O; Boc = CC(C)(C)OC(=O)*; Aib = CC(C)(N)C(=O)O; OBn = c1ccc(CO*)cc1
// allowed return values: yes (1) (active), no (0) (inactive)

Worked set:
>>> class_assignment("O=C1c2cccc3cccc(c23)C(=O)N1CCCNCCCCNCCCNCCCN1C(=O)c2cccc3cccc(c23)C1=O")
"yes (1)"
>>> class_assignment("Cc1nc(-c2cccnc2)sc1C(=O)CC(=O)C(=O)Nc1cccc(NC(=O)C(=O)CC(=O)c2sc(-c3cccnc3)nc2C)n1")
"no (0)"
>>> class_assignment("Cc1ccc2c(c1)OC1Nc3ccccc3C1=C2O (centres undefined)")
"no (0)"
>>> class_assignment("C=C1C(=O)O[C@@H]2C[C@@H](C)[C@@H]3C=CC(=O)[C@@]3(C)[C@@H](O)[C@H]12")
"yes (1)"

[Q] What did the test return for CC1=C(C(N)=O)C(c2ccncc2)C(C#N)=C2SCC(=O)N12 (centres undefined) ?
[A] no (0)

[Q] What did the test return for `O=C(/C=C/c1cccs1)c1ccc(Cl)s1` ?
[A] no (0)

[Q] What did the test return for CC(C)(C)OC(=O)NC(CC(=O)OCc1ccccc1)C(=O)NC(C)(C)C(N)=O (centres undefined) (Boc-[ξD](OBn)-[Aib]-NH2) ?
[A] no (0)

[Q] What did the test return for `COc1ccc(NCc2c(O)ccc3ccccc23)cc1` ?
[A] no (0)

[Q] What did the test return for CCOC(=O)C1=C(C)C2C=C(c3cccs3)CC(c3ccc(Cl)cc3)=C2OC1=O (centres undefined) ?
[A] no (0)

* * *

Measured GI50, listed per entry.
# System: T47D
# assay name: NCI tumour cell line growth inhibition, 48 h
Activity calls are given as the source filed them. No stated cut-off is given here; in the data, active = GI50 up to about 1.1 µM and inactive = higher.

>>> observed_result("CCCCOC(=O)NC(Nc1ccc(S(=O)(=O)Nc2ccc(OC)nn2)cc1)(C(F)(F)F)C(F)(F)F")
"> 100 µM (inactive)"
>>> observed_result("CC#CC(=O)SCCNC(=O)CC")
"> 6.5 µM (inactive)"
>>> observed_result("O=C(O)/C=C\\C(=O)Nn1c(Cc2ccc(Cl)cc2)n[nH]c1=O")
"> 100 µM (inactive)"
>>> observed_result("COc1ccc(C(=O)c2sc(Nc3ccccc3)nc2N)cc1")
"> 100 µM (inactive)"
>>> observed_result("O=C(COc1ccc(OCC(=O)N/N=C/c2ccc(-c3ccc(Cl)cc3Cl)o2)c(Cl)c1)N/N=C/c1ccc(-c2ccc(Cl)cc2Cl)o1")
"> 100 µM (inactive)"

// moving on: another record for GI50
Notebook: COc1ccc(C(O)c2ccc3c(c2)OCO3)cc1 (stereo unspecified) , GI50 read as 99.3 µM (inactive)

* * *

# System: TK-10
# assay name: NCI tumour cell line growth inhibition, 48 h
Active and inactive are the calls of the source. No stated cut-off is given here; in the data, active = GI50 up to about 1.1 µM and inactive = higher.
// allowed return values: true (1) for active, false (0) for inactive

[Q] What did the test return for `O=C1CCCCC[C@]12SC[C@H]1CON=C12` ?
[A] false (0)

[Q] What did the test return for `COc1c(C)cc2c(C(C)C)c(O)c(O)c(C=O)c2c1O` ?
[A] false (0)

[Q] What did the test return for `CO[C@H]1C[C@@H]2CC[C@@H](C)[C@@](O)(O2)C(=O)C(=O)N2CCCC[C@H]2C(=O)O[C@H]([C@H](C)C[C@@H]2CC[C@@H](O)[C@H](OC)C2)CC(=O)[C@H](C)C=C(C)[C@@H](O)[C@@H](OC)C(=O)[C@H](C)C[C@H](C)/C=C/C=C/C=C1C` ?
[A] true (1)

[Q] What did the test return for N#Cc1ccccc1NC(=O)C(=O)C1NC(=S)NC1=O (centres undefined) ?
[A] false (0)

[Q] What did the test return for CCOC(=O)CC1(O)CCCCC1(Sc1ccc(C)cc1)Sc1ccc(C)cc1 (centres undefined) ?
[A] false (0)

[Q] What did the test return for `Cn1ccnc1C(O)(c1nccn1C)c1nccn1C` ?
[A] false (0)

* * *

# Test system: M14
# assay name: NCI tumour cell line growth inhibition, 48 h
The source made the active and inactive calls. No stated cut-off is given here; in the data, active = GI50 up to about 1.1 µM and inactive = higher.
// allowed return values: 1 = active, -1 = inactive

Worked set:
>>> class_assignment("c1ccc(/N=C2\\S/C(=N\\C3CCCCC3)N(C3CCCCC3)\\C2=N/c2ccccc2)cc1")
-1
>>> class_assignment("O=C(NCCO)c1ccc(Cl)cc1")
-1
>>> class_assignment("CN(c1ccc(Cl)cc1)S(=O)(=O)c1cccc([N+](=O)[O-])c1")
-1
>>> class_assignment("C=CCC(C)(C(=O)NCCC)C(=O)c1ccccc1O (stereo not drawn)")
-1

[Q] What did the test return for `COc1cc2ccc1NC(=O)N1CCN(CC1)C(=O)Nc1ccc(cc1OC)-c1ccc(c(OC)c1)NC(=O)N1CCN(CC1)C(=O)Nc1ccc-2cc1OC` ?
[A] -1

[Q] What did the test return for c1ccc(COC2(OCc3ccccc3)CC3OC2C2NN=NC32)cc1 (stereo not drawn) ?
[A] -1

[Q] What did the test return for `O=C1C(NS(=O)(=O)c2ccccc2)=C(n2cnc3ccccc32)C(=O)c2ccccc21` ?
[A] -1

[Q] What did the test return for `CC(=O)Nc1ccc(NCC(=O)Nn2cnc3ccc(S(=O)(=O)Nc4ccc(NC(C)=O)cc4)cc3c2=O)cc1` ?
[A] -1

[Q] What did the test return for `NCCNCC1CCNCC1` ?
[A] -1
